Test system: SK-MEL-5
Assay: NCI tumour cell line growth inhibition, 48 h
Calls of active or inactive are those of the source. Rule as the data show it: active = GI50 up to about 1.1 µM and inactive = higher.
Measured GI50 values are reported for all entries that follow.

Cc1cn(C2CC(N=[N+]=[N-])C(CO[Si](C)(C)C(C)(C)C)O2)c(=O)[nH]c1=O (centres undefined) = 18.5 µM (inactive)
COc1nc(N)nc2c1ncn2C1CC(O)C(CO)O1 (centres undefined) = > 100 µM (inactive)

From here, focus on the item given below.
INPUT: Param item = Oc1ccc2c3c1OC1c4[nH]ncc4C[C@H]4[C@@H](C2)N(CC2CC2)CC[C@]314 (some centres undefined) ; retrieve measured GI50.
OUTPUT: > 100 µM (inactive)
